Just for reference, patent US8552002B2 is where these values come from.

test_system: FGFR3 (K650E) (Homo sapiens, UniProt P22607, K650E)
Construct: amino acids 411-806 of the cytoplasmic domain of human FGFR-3, N-terminally fused to GST; made in house; host or cells: Sf9 insect cells (baculovirus)
Sequence (P22607 411-806 K650E): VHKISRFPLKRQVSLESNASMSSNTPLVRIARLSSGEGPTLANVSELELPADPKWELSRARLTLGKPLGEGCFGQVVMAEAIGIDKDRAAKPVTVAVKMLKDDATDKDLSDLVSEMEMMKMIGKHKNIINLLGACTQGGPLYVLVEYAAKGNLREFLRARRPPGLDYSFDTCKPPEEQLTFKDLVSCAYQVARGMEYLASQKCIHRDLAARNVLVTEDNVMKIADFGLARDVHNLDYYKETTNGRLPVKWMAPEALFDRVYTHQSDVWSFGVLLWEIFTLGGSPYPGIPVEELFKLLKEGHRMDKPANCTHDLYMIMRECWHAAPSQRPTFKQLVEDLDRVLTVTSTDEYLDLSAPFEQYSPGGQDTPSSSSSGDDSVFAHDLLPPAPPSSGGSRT
assay_text: Recombinant GST-FGFR-3-K650E tyrosine kinase assay (33P into poly(Glu,Tyr))
Assay type: biochemical
experimental_conditions: 10 μM; Examples 1 to 169; read-out: FGFR3 (K650E) inhibition at 10 μM
measure: inhibition at 10 µM

> print(dat)
                                   molecule              measure      result
1  CN1CCC(COc2cccc(Nc3cc(NC(=O)Nc4c(Cl)cccc4Cl)ncn3)c2)CC1 [Example 80]  inhibition at 10 µM  27 to 100%
2  CN1CCN(c2ccc(Nc3cc(NC(=O)Nc4ccc(Cl)c(Cl)c4)ncn3)cc2)CC1 [Example 75]  inhibition at 10 µM  27 to 100%
3  O=C(Nc1cc(Nc2ccc(OCCCN3CCOCC3)cc2)ncn1)Nc1ccccc1Br [Example 99]  inhibition at 10 µM  27 to 100%
4  CCN1CCN(Cc2cccc(Nc3cc(N(C)C(=O)Nc4c(Cl)c(OC)cc(OC)c4Cl)ncn3)c2)CC1 [Example 150]  inhibition at 10 µM  27 to 100%
